experiment description: RP-HPLC retention on XTerra RP18, methanol/buffer; extrapolated retention factor log kw and slope S
Type: physicochemical
cond: pH 9.1; slope of log k vs methanol volume fraction
Where a name gives a salt, the structure may show the parent alone.
Measured S (slope), listed per entry for reference.
Field format: numeric only.

Cc1nccc2c1[nH]c1ccccc12 [Harman, harmane] = -3.75
N=C(N)NC(=O)Cc1c(Cl)cccc1Cl [Guanfacine, guanfacine hydrochloride] = -3.35
c1ccc2c(CC3=NCCN3)cccc2c1 [Naphazoline, naphazoline hydrochloride] = -3.50

Incoming: Entry CN1CCN2c3ccccc3Cc3ccccc3C2C1 (centres unmarked) [Mianserin, mianserin hydrochloride] : reported S (slope) = ?
Outgoing: -4.83

Incoming: // next record Nc1nc(N)c2nc(-c3ccccc3)c(N)nc2n1 [Triamterene, triamterene]
Outgoing: -3.75

Incoming: // next record CNC[C@H](O)c1cccc(O)c1 [Phenilephrine, Phenilephrine hydrochloride]
Outgoing: -2.00

Incoming: // next record CCC1(C2=NCCN2)Cc2ccccc2O1 (centres unmarked) [Efaroxan, efaroxan hydrochloride]
Outgoing: -3.38

Incoming: // next record COc1ccc2c(c1)[nH]c1c(C)nccc12 [Harmine, harmine hydrochloride]
Outgoing: -3.97

Incoming: // next record CN[C@@H](C)[C@H](O)c1ccccc1 [Ephedrine, ephedrine hydrochloride]
Outgoing: -2.52

Incoming: // next record CC1Cc2ccccc2N1NC(=O)c1ccc(Cl)c(S(N)(=O)=O)c1 (centres unmarked) [Indapamide, indapamide]
Outgoing: -3.78

Incoming: // next record C[C@@H]1CCC[C@H](C)N1NC(=O)c1ccc(Cl)c(S(N)(=O)=O)c1 [Clopamide, clopamide]
Outgoing: -3.34

Incoming: // next record Brc1c(NC2=NCCN2)ccc2nccnc12 [Brimonidine, brimonidine hydrochloride]
Outgoing: -3.23

Incoming: // next record Clc1cccc(Cl)c1N=C1NCCN1 [Clonidine, Clonidine hydrochloride]
Outgoing: -2.71

Incoming: // next record Cc1cc(C(C)(C)C)c(O)c(C)c1CC1=NCCN1 [Oxymetazoline, oxymetazoline hydrochloride]
Outgoing: -4.14

###

Measured µeff7.4, listed per entry for reference.
experiment description: Capillary electrophoresis, effective electrophoretic mobility (acetone as EOF marker)
Format: physicochemical
cond: pH 7.4; I = 25 mmol/L, 11 kV, 25 °C, three replicates
Structures can show the parent of a compound that is named as a salt.

Consider the reported µeff7.4 for these molecules:
Nc1nc(N)c2nc(-c3ccccc3)c(N)nc2n1 = 1.140 ± 0.053 10^-5 cm^2 V^-1 s^-1
CCOc1ccccc1OCCN[C@H](C)Cc1ccc(OC)c(S(N)(=O)=O)c1 [Tamsulosin, tamsulosin hydrochloride] = 14.444 ± 0.058 10^-5 cm^2 V^-1 s^-1
CNC[C@H](O)c1cccc(O)c1 [Phenilephrine, Phenilephrine hydrochloride] = 21.650 ±0.195 10^-5 cm^2 V^-1 s^-1
COc1cc2nc(N3CCN(C(=O)C4COc5ccccc5O4)CC3)nc(N)c2cc1OC (centres unmarked) = 3.137 ± 0.075 10^-5 cm^2 V^-1 s^-1

Incoming: Entry Clc1ccc2nsnc2c1NC1=NCCN1 [Tizanidine, tizanidine hydrochloride] : reported µeff7.4 = ?
Outgoing: 12.077 ± 0.042 10^-5 cm^2 V^-1 s^-1

Incoming: // next record CN[C@@H](C)[C@H](O)c1ccccc1 [Ephedrine, ephedrine hydrochloride]
Outgoing: 23.199 ± 0.103 10^-5 cm^2 V^-1 s^-1

Incoming: // next record c1ccc2c(c1)OCC(C1=NCCN1)O2 (centres unmarked) [Idazoxan, idazoxan hydrochloride]
Outgoing: 23.293 ± 0.020 10^-5 cm^2 V^-1 s^-1

Incoming: // next record CN1CCN2c3ccccc3Cc3ccccc3C2C1 (centres unmarked) [Mianserin, mianserin hydrochloride]
Outgoing: 12.234 ± 0.109 10^-5 cm^2 V^-1 s^-1

Incoming: // next record Brc1c(NC2=NCCN2)ccc2nccnc12 [Brimonidine, brimonidine hydrochloride]
Outgoing: 13.247 ± 0.200 10^-5 cm^2 V^-1 s^-1

Incoming: // next record C[C@@H]1CCC[C@H](C)N1NC(=O)c1ccc(Cl)c(S(N)(=O)=O)c1 [Clopamide, clopamide]
Outgoing: 0.000 ± 0.000 10^-5 cm^2 V^-1 s^-1

Incoming: // next record CCC1(C2=NCCN2)Cc2ccccc2O1 (centres unmarked) [Efaroxan, efaroxan hydrochloride]
Outgoing: 22.704 ± 0.075 10^-5 cm^2 V^-1 s^-1

Incoming: // next record CC1Cc2ccccc2N1NC(=O)c1ccc(Cl)c(S(N)(=O)=O)c1 (centres unmarked) [Indapamide, indapamide]
Outgoing: 0.000 ± 0.000 10^-5 cm^2 V^-1 s^-1

Incoming: // next record COc1ccc2c(c1)[nH]c1c(C)nccc12 [Harmine, harmine hydrochloride]
Outgoing: 13.636 ± 0.051 10^-5 cm^2 V^-1 s^-1

Incoming: // next record C1COC(NC(C2CC2)C2CC2)=N1 [Rilmenidine, rilmenidine hemifumarate]
Outgoing: 22.551 ± 0.029 10^-5 cm^2 V^-1 s^-1

Incoming: // next record N=C(N)NC(=O)Cc1c(Cl)cccc1Cl [Guanfacine, guanfacine hydrochloride]
Outgoing: 5.083 ± 0.025 10^-5 cm^2 V^-1 s^-1

Incoming: // next record c1cc2c(c(NC3=NCCN3)c1)CCCC2 [Tramazoline, Tramazoline hydrochloride]
Outgoing: 22.988 ± 0.060 10^-5 cm^2 V^-1 s^-1

Incoming: // next record Cc1cc(C(C)(C)C)cc(C)c1CC1=NCCN1 [Xylometazoline, xylometazoline hydrochloride]
Outgoing: 19.943 ± 0.006 10^-5 cm^2 V^-1 s^-1

###

experiment description: Capillary electrophoresis, effective electrophoretic mobility (acetone as EOF marker)
Assay type: physicochemical
cond: pH 7.4; I = 25 mmol/L, 11 kV, 25 °C, three replicates
Counter-ions that a name gives are not always drawn.
endpoint name: µeff7.4

Incoming: Entry CNCCCC12CCC(c3ccccc31)c1ccccc12 [Maprotiline, maprotiline hydrochloride] : reported µeff7.4 = ?
Outgoing: 18.696 ± 0.048 10^-5 cm^2 V^-1 s^-1

Incoming: // next record c1ccc2c(CC3=NCCN3)cccc2c1 [Naphazoline, naphazoline hydrochloride]
Outgoing: 24.180 ± 0.135 10^-5 cm^2 V^-1 s^-1

Incoming: // next record COc1ccccc1OCCNCC(O)COc1cccc2[nH]c3ccccc3c12 (stereo not drawn)
Outgoing: 13.057 ± 0.052 10^-5 cm^2 V^-1 s^-1

Incoming: // next record Clc1cccc(Cl)c1N=C1NCCN1 [Clonidine, Clonidine hydrochloride]
Outgoing: 19.607 ± 0.132 10^-5 cm^2 V^-1 s^-1

Incoming: // next record Cc1nccc2c1[nH]c1ccccc12
Outgoing: 11.752 ± 0.034 10^-5 cm^2 V^-1 s^-1

###

experiment description: Capillary electrophoresis, effective electrophoretic mobility (acetone as EOF marker)
Format: physicochemical
cond: pH 4.4; I = 25 mmol/L, 11 kV, 25 °C, three replicates
Where a name gives a salt, the structure may show the parent alone.
Measured µeff4.4, listed per entry for reference.

Consider the reported µeff4.4 for these molecules:
C[C@@H]1CCC[C@H](C)N1NC(=O)c1ccc(Cl)c(S(N)(=O)=O)c1 [Clopamide, clopamide] = 0.000 ± 0.000 10^-5 cm^2 V^-1 s^-1
CCOc1ccccc1OCCN[C@H](C)Cc1ccc(OC)c(S(N)(=O)=O)c1 [Tamsulosin, tamsulosin hydrochloride] = 17.310 ± 0.002 10^-5 cm^2 V^-1 s^-1

Here is another molecule to look at.
Incoming: Entry C1COC(NC(C2CC2)C2CC2)=N1 [Rilmenidine, rilmenidine hemifumarate] : reported µeff4.4 = ?
Outgoing: 25.350 ± 0.121 10^-5 cm^2 V^-1 s^-1

###

Measured S (slope), listed per entry for reference.
experiment description: RP-HPLC retention on XTerra RP18, methanol/buffer; extrapolated retention factor log kw and slope S
Type: physicochemical
cond: pH 7.4; slope of log k vs methanol volume fraction
Structures can show the parent of a compound that is named as a salt.
Field format: numeric only.

Consider the reported S (slope) for these molecules:
CC1Cc2ccccc2N1NC(=O)c1ccc(Cl)c(S(N)(=O)=O)c1 (stereo not shown) [Indapamide, indapamide] = -4.19
c1ccc2c(c1)OCC(C1=NCCN1)O2 (stereo not shown) [Idazoxan, idazoxan hydrochloride] = -1.58
COc1nc(C)nc(Cl)c1N=C1NCCN1 [Moxonidine, moxonidine hydrochloride] = -2.36

Incoming: Entry CN1CCN2c3ccccc3Cc3ccccc3C2C1 (stereo not shown) [Mianserin, mianserin hydrochloride] : reported S (slope) = ?
Outgoing: -4.82

Incoming: // next record COc1ccc2c(c1)[nH]c1c(C)nccc12 [Harmine, harmine hydrochloride]
Outgoing: -3.85

###

experiment description: RP-HPLC retention on XTerra RP18, methanol/buffer; extrapolated retention factor log kw and slope S
Format: physicochemical
cond: pH 9.1; slope of log k vs methanol volume fraction
Structures can show the parent of a compound that is named as a salt.
Measured S (slope), listed per entry for reference.
Field format: numeric only.

Consider the reported S (slope) for these compounds:
c1ccc2c(c1)CCCC2C1=NCCN1 (stereo not shown) [Tetrahydrozoline, tetrahydrozoline hydrochloride] = -2.99
CNCCCC12CCC(c3ccccc31)c1ccccc12 [Maprotiline, maprotiline hydrochloride] = -4.20
Clc1ccc2nsnc2c1NC1=NCCN1 [Tizanidine, tizanidine hydrochloride] = -2.63

Here is another compound to look at.
Incoming: Entry COc1nc(C)nc(Cl)c1N=C1NCCN1 [Moxonidine, moxonidine hydrochloride] : reported S (slope) = ?
Outgoing: -2.31
